Here, compounds appear alongside IC50 reported for Cytochrome P450 2C19 (Homo sapiens, UniProt P33261) in the literature.

Known IC50 results, listed for orientation:
1. CNC(=O)Nc1cc2n(n1)CCN2c1cc(Br)cc(C(=O)Nc2cccc(C(=O)O)c2)c1    > 20 µM
2. CC(C)C(c1ccc2cc(-c3ccc(F)cc3)ccc2n1)n1ccnn1 (stereo not shown)    31 µM
3. C[C@H](c1ccc(F)cc1)n1cncc1C1C(=O)OCC2CN(S(=O)(=O)c3cnc(Nc4ccc(C(F)(F)F)cn4)s3)CCN21 (stereo partly shown)    2.65 µM
4. Cc1cc(Nc2ncc(Cl)c(Nc3cn(C)nc3S(=O)(=O)C(C)C)n2)c(OC2CC2)cc1C1CCN(C)CC1    > 10 µM
5. CN1C(=O)N(c2cccc(C(F)(F)F)c2)C2=C(C(=O)CCC2)[C@H]1c1ccc(C#N)cc1[S+](C)[O-] (single isomer, unassigned)    > 50 µM
6. Cc1cccc2c1Oc1ccc(Cl)cc1N=C2N1CCNCC1    > 10 µM

Moving on to another compound below.
Requested read-out IC50, target or system Cytochrome P450 2C19 (Homo sapiens, UniProt P33261), entry C[C@H](c1ccc(F)cc1)n1cncc1CN1CCN(S(=O)(=O)c2cnc(N3CCC(S(C)(=O)=O)C3)s2)CC1 (stereo partly shown)
> 10 µM
